# run description: Metabolic stability in rat liver microsome assessed as elimination half life at 0.1 uM in presence of NADPH incubated upto 60 mins by LC-MS/MS analysis
# Assay type: ADME
# run parameters: liver microsomes, read-out: beta t1/2
Consider the following compounds; for each one, report its half-life at 0.1 µM.
Give a bare numeral; the unit min is implied.

Entry `CNc1cc(F)cc2c1[nH]c1nc(Oc3cnc(C)nc3)nc(N3CC(=C(C)[C@@H](C)N)C3)c12` ; half-life at 0.1 µM = 8.3

Entry `CNc1cc(F)cc2c1[nH]c1nc(Oc3cnc(C)nc3)nc(N3CC(=C(CN)C(C)C)C3)c12` ; half-life at 0.1 µM = 17.8

Per the records, this compound ( [2H]C([2H])([2H])Nc1cc(F)cc2c1[nH]c1nc(Oc3cnc(C)nc3)nc(N3CC(=C(C)C(C)N)C3)c12 (stereo not drawn) ) has half-life at 0.1 µM equal to 20.2

// `CCC(CO)=C1CN(c2nc(Oc3cnc(C)nc3)nc3[nH]c4c(NC)cc(F)cc4c23)C1` : half-life at 0.1 µM value = 45.6

Lookup result for `CCC(CN)=C1CN(c2nc(Oc3cnc(CO)nc3)nc3[nH]c4c(NC)cc(F)cc4c23)C1` ; measured half-life at 0.1 µM: 11.9

The recorded half-life at 0.1 µM for CCC(CN)=C1CN(c2nc(Oc3cnc(C(C)O)nc3)nc3[nH]c4c(NC)cc(F)cc4c23)C1 (stereo not drawn) is 15.2

Sample CNc1cc(F)cc2c1[nH]c1nc(Oc3cnc(C)nc3)nc(N3CC(=CC(C)N)C3)c12 (stereo not drawn) ; half-life at 0.1 µM observed: 12

Reported half-life at 0.1 µM for `[2H]C([2H])([2H])Nc1cc(F)cc2c1[nH]c1nc(Oc3cnc(C)nc3)nc(N3CC(=C(C)[C@@H](C)N)C3)c12` was 9.8

---

# system tested: hERG (KCNH2) potassium channel (Homo sapiens)
# Sequence (Q12809 whole entry): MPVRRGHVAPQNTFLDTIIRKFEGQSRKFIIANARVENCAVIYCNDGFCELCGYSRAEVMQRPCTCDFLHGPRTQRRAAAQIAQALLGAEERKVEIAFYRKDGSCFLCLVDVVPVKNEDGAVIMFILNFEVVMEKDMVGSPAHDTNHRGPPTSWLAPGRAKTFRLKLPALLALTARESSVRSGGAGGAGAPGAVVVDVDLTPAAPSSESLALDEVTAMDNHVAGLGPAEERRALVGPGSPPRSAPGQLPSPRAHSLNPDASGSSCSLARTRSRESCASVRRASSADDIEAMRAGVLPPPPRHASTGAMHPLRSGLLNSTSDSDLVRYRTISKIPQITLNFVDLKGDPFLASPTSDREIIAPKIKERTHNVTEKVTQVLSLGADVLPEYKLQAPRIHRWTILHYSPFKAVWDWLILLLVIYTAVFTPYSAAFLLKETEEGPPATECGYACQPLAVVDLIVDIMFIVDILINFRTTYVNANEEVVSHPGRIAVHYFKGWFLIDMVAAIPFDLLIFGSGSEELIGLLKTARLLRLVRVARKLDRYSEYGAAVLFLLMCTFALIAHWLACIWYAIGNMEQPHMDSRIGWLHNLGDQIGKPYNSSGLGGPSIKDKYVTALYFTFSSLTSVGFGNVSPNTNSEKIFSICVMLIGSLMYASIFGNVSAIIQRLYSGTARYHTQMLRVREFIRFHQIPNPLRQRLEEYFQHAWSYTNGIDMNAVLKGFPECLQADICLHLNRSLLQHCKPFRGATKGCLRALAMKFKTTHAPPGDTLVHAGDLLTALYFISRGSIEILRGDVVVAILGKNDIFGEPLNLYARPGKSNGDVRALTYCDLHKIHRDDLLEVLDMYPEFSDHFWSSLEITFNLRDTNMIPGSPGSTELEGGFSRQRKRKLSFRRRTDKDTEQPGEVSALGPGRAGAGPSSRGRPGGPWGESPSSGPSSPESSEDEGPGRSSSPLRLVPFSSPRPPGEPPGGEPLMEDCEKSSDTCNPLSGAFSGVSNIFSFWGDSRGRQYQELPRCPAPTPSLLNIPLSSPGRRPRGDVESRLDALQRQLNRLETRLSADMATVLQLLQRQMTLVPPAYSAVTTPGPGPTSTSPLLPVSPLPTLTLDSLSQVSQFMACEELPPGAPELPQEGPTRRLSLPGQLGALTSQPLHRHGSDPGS
# run description: Inhibition of hERG potassium channel assessed as maximum inhibition rate at 40 uM at -80 mV holding potential incubated for 120 seconds by whole cell-automated voltage clamp analysis assay relative to control
# Format: toxicity
# run parameters: time 120 sec
Please enter t where inhibition at 2 min, 40 µM is greater than or equal to 40%, and f where it is lower.

Check the entry `CNc1cc(F)cc2c1[nH]c1nc(Oc3cnc(C)nc3)nc(N3CC(=C(Cl)CN)C3)c12` : does inhibition at 2 min, 40 µM equal or exceed 40%?
f

Please tell me: is the molecule CNc1cc(F)cc2c1[nH]c1nc(Oc3cnc(C)nc3)nc(N3CC(=C(C)C(C)N)C3)c12 (racemic) at or over 40% in terms of inhibition at 2 min, 40 µM?
f

# bool: inhibition at 2 min, 40 µM of `CCCC(CN)=C1CN(c2nc(Oc3cnc(C)nc3)nc3[nH]c4c(NC)cc(F)cc4c23)C1` >= 40%
t

Is inhibition at 2 min, 40 µM at least 40%? Consider CCC(CN)=C1CN(c2nc(Oc3cnc(C(C)O)nc3)nc3[nH]c4c(NC)cc(F)cc4c23)C1 (stereo not drawn)
f

Has `CNc1cc(F)cc2c1[nH]c1nc(Oc3cnc(C)nc3)nc(N3CC(=C(CN)C(C)C)C3)c12` a recorded inhibition at 2 min, 40 µM greater than or equal to 40%?
f

Decide: inhibition at 2 min, 40 µM of `CNc1cc(F)cc2c1[nH]c1nc(Oc3cnc(C)nc3)nc(N3CC(=C(F)CN)C3)c12` >= 40%?
f

Given the entry `CCC(CN)=C1CN(c2nc(Oc3cnc(C4CC4)nc3)nc3[nH]c4c(NC)cc(F)cc4c23)C1` , answer whether its inhibition at 2 min, 40 µM meets or surpasses 40%.
t

inhibition at 2 min, 40 µM >= 40% for [2H]C([2H])([2H])Nc1cc(F)cc2c1[nH]c1nc(Oc3cnc(C)nc3)nc(N3CC(=C(C)C(C)N)C3)c12 (stereo not drawn) ?
f
